Test system: RXF 393 renal
assayProcedure: NCI-60 one-dose screen, 48 h
conditions: 10 µM unless noted
The panel holds about 83,000 compounds, 20% with a hit somewhere; the sample as a whole holds those more often. Activity calls are given as the source filed them. How the source made its calls: active means growth percent below 10; inactive means the rest.
One label from this list, please: active, inactive

CCCCCCCCCCCCCCCC(=O)NS(=O)(=O)OC[C@H]1O[C@@H](n2cnc3c(N)ncnc32)[C@H](O)[C@@H]1O	active
CCC1S/C(=N\N=C(/C)c2cccs2)N(c2ccccc2)C1=O (centres undefined)	inactive
COc1ccc(/C=C2/C(=O)Nc3cc(Cl)c(-c4csc(N)n4)cc32)cc1	inactive
O=S(=O)(CCN1CCOCC1)Nc1cc(-c2ccc3ncnc(Nc4ccc(F)c(Cl)c4)c3c2)cnc1Cl	active
N#Cc1c(N)nc2c(c1N)C(c1ccc(Cl)cc1)C1=C(CCCC1=O)N2c1sc2c(c1C#N)CCCC2 (centres undefined)	inactive
CC(=O)N1N=C2N(Cc3ccccc3)C(=O)c3c(sc4c3CCCC4)N2C1c1cn(-c2ccccc2)nc1-c1ccc(Cl)cc1 (centres undefined)	inactive

Assay outcome for CCCCCCCCCCCCCCCCNc1ccccc1 : what was it? inactive

Test call, this molecule: CC(=O)c1ccc2c(c1)C1C=CCC1[C@H](c1cc3c(cc1Br)OCO3)N2 (some centres undefined) active

Give the logged outcome of this assay for the following molecule: C/C(=N/NC(=O)Cn1c2ccccc2c2ccncc21)c1cccs1 inactive
